The values you see were collected from patent US20250270287A1.

system: T1, GDF-11 (UniProt O95390 299-407)
T1 construct: also called growth and differentiation factor 11
T1 sequence (looked up): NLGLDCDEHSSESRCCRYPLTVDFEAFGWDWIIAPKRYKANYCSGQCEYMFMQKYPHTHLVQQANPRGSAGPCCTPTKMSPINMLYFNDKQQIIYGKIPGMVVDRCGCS
assayComment: SPR (Biacore 8K), Fc protein captured on anti-human IgG, ligand injected
pKd: −log10 of the molar value.
measure: pKd

// recorded pKd for ActRIIB-B1B7 (SEQ ID NO: 116) chimera-Fc protein (Fc fusion, Tested as chimera-Fc protein; not shown: linker (if any) and Fc domain) GRGEAETRECLFFNANWELERTNQSGLERCEGEQDKRLHCYASWRNSSGTIELVKKGCWLDDFNCYDRQECVATEENPQVYFCCCEGNFCNEKFSYFPEAGGPEVTYEPPPTAPT : > 12.00

// recorded pKd for ActRIIA-B7 (SEQ ID NO: 100) chimera-Fc protein (Fc fusion, Tested as chimera-Fc protein; not shown: linker (if any) and Fc domain) GAILGRSETQECLFFNANWEKDRTNQTGVEPCYGDKDKRRHCFATWKNISGSIEIVKQGCWLDDINCYDRTDCVEKKDSPEVYFCCCEGNMCNERFTHLPEMEVTQPTS : > 12.00
